- Measured Target: Neuronal acetylcholine receptor subunit alpha-7 (Rattus norvegicus, UniProt Q05941)
- Sequence (Q05941 whole entry): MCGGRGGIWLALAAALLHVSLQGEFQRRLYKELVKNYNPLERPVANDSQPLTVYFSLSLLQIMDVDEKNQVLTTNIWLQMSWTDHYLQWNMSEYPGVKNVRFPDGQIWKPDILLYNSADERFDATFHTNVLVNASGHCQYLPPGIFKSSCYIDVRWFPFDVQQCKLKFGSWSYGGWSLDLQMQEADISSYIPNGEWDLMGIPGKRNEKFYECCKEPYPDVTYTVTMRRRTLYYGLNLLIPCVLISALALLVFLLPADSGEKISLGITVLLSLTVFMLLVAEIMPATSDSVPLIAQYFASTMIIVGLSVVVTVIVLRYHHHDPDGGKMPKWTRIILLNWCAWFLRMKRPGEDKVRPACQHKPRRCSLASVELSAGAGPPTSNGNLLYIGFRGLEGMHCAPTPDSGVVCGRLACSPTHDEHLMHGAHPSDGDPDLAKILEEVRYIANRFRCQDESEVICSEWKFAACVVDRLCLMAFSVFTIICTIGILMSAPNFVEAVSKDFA
- Protocol Summary: Displacement of [3H]methyllycaconitine from alpha7 nAChR in Sprague-Dawley rat brain membrane fraction after 2 hrs by liquid scintillation counting analysis
- Type: cell membranes
pKi: −log10 of the molar value.
Returns condition met if the recorded pKi is greater than or equal to 6, and condition not met otherwise.

Worked examples, 4 compounds total:
> print(dat)
                        structure.string  assigned.category
1        CC(=O)N1C[C@@H]2CNC[C@@H](C2)C1  condition not met
2  O=C(C1CCCC1)N1C[C@@H]2CNC[C@@H](C2)C1      condition met
3    CC(C)C(=O)N1C[C@@H]2CNC[C@@H](C2)C1      condition met
4  O=C(c1ccco1)N1C[C@@H]2CNC[C@@H](C2)C1  condition not met

Consider the additional compound presented here.
Query: Form field: pKi at least 6? Entry: CCCC(=O)N1C[C@@H]2CNC[C@@H](C2)C1
Reply: condition met
